Please provide measured % degradation in 24 h when incubated with human plasma for the entries that follow.
Assay: Stability in human plasma
Type: in vitro ADME
Details: 2 μM, 37° C., 24 h
Experimental: Different peptidomimetics (final concentration 2 μM) were incubated with either DPP IV (1:25 mU) or pooled human plasma (7.5 μL) or simulated gastric fluid (pH 1.5; composition HCl, NaCl and Pepsin) or simulated intestinal fluid (pH 7.5) or human liver microsomes, for 0, 2, 4, 6, 12 and 24 h (37° C.; 50 mM triethanolamine-HCl buffer; pH 7.8). […] The absorbance was monitored at 206 nm using UV detector and peaks were collected manually prior to ESI-MS analysis. […]
Where a SMILES comes first, the peptide text is derived from it. [ ]: non-standard residue; d: D form. ξ: configuration not given here. ξαMeBip(2'-Et,4'-OMe) = CCc1cc(OC)ccc1-c1ccc(CC(C)(N)C(=O)O)cc1; ξαMePhe(2,6-F2) = CC(N)(Cc1c(F)cccc1F)C(=O)O; ξαMe(hhPhe) = CC(N)(CCCc1ccccc1)C(=O)O; ξαMePhe(2-F) = CC(N)(Cc1ccccc1F)C(=O)O; ξhhPhe = NC(CCCc1ccccc1)C(=O)O; ξαMeD = CC(N)(CC(=O)O)C(=O)O; Aib = CC(C)(N)C(=O)O
One number for each entry, in %.

// for each molecule below, give its % degradation in 24 h when incubated with human plasma
1. CCc1cc(OC)ccc1-c1ccc(CC(C)(NC(=O)[C@H](CC(=O)O)NC(=O)[C@H](CO)NC(=O)[C@@H](NC(=O)C(C)(Cc2c(F)cccc2F)NC(=O)[C@@H](NC(=O)CNC(=O)[C@H](CCC(=O)O)NC(=O)C(C)(C)NC(=O)[C@H](Cc2c[nH]cn2)NC(=O)[C@@H](N)C(C)C)[C@@H](C)O)[C@@H](C)O)C(=O)NC(CCCc2ccccc2)C(N)=O)cc1 (some centres unmarked) [compound 31] (H-VH[Aib]EGT[ξαMePhe(2,6-F2)]TSD[ξαMeBip(2'-Et,4'-OMe)][ξhhPhe]-NH2)
2. CCc1cc(OC)ccc1-c1ccc(CC(C)(NC(=O)C(C)(CC(=O)O)NC(=O)[C@H](CO)NC(=O)[C@@H](NC(=O)C(C)(Cc2ccccc2F)NC(=O)[C@@H](NC(=O)CNC(=O)[C@H](CCC(N)=O)NC(=O)C(C)(C)NC(=O)[C@H](Cc2c[nH]cn2)NC(=O)[C@@H](N)C(C)C)[C@@H](C)O)[C@@H](C)O)C(=O)NC(C)(CCCc2ccccc2)C(N)=O)cc1 (some centres unmarked) [compound 191] (H-VH[Aib]QGT[ξαMePhe(2-F)]TS[ξαMeD][ξαMeBip(2'-Et,4'-OMe)][ξαMe(hhPhe)]-NH2)

1: 70; 2: 78

----------
assay: Stability in simulated intestinal fluid; type: in vitro ADME; conditions: simulated gi fluid; 2 μM, 37° C., pH 7.5; read-out: half-life (t1/2) in simulated intestinal fluid
Where a SMILES comes first, the peptide text is derived from it. [ ]: non-standard residue; d: D form. ξ: configuration not given here. ξαMeBip(2'-Et,4'-OMe) = CCc1cc(OC)ccc1-c1ccc(CC(C)(N)C(=O)O)cc1; ξBip(2'-Et-4'-OMe) = CCc1cc(OC)ccc1-c1ccc(CC(N)C(=O)O)cc1; ξαMe(hhPhe) = CC(N)(CCCc1ccccc1)C(=O)O; ξαMePhe(2-F) = CC(N)(Cc1ccccc1F)C(=O)O; ξhhPhe = NC(CCCc1ccccc1)C(=O)O; ξαMeD = CC(N)(CC(=O)O)C(=O)O; ξαMeP = CC1(C(=O)O)CCCN1; ξαMeS = CC(N)(CO)C(=O)O
Result Type: half-life

These recorded examples may help you get a feel for the data.
Name the recorded half-life for CCc1cc(OC)ccc1-c1ccc(CC(NC(=O)C(C)(CC(=O)O)NC(=O)C(C)(CO)NC(=O)[C@@H](NC(=O)[C@H](Cc2ccccc2)NC(=O)[C@@H](NC(=O)CNC(=O)[C@H](CCC(=O)O)NC(=O)[C@H](C)NC(=O)[C@H](Cc2c[nH]cn2)NC(=O)[C@@H](N)C(C)C)[C@@H](C)O)[C@@H](C)O)C(=O)NC(C)(CCCc2ccccc2)C(N)=O)cc1 (some centres unmarked) [compound 112] (H-VHAEGTFT[ξαMeS][ξαMeD][ξBip(2'-Et-4'-OMe)][ξαMe(hhPhe)]-NH2) .
30 min

Fill in the blank: the reported half-life of CCc1cc(OC)ccc1-c1ccc(CC(C)(NC(=O)[C@H](CC(=O)O)NC(=O)C(C)(CO)NC(=O)[C@@H](NC(=O)C(C)(Cc2ccccc2F)NC(=O)[C@@H](NC(=O)CNC(=O)[C@H](CCC(N)=O)NC(=O)[C@H](CO)NC(=O)[C@H](Cc2c[nH]cn2)NC(=O)[C@@H](N)C(C)C)[C@@H](C)O)[C@@H](C)O)C(=O)NC(C)(CCCc2ccccc2)C(N)=O)cc1 (some centres unmarked) [compound 165] (H-VHSQGT[ξαMePhe(2-F)]T[ξαMeS]D[ξαMeBip(2'-Et,4'-OMe)][ξαMe(hhPhe)]-NH2) is ____.
30 min

Look at this compound and give its reported half-life. CCc1cc(OC)ccc1-c1ccc(CC(C)(NC(=O)[C@H](CC(=O)O)NC(=O)C(C)(CO)NC(=O)[C@@H](NC(=O)C(C)(Cc2ccccc2F)NC(=O)[C@@H](NC(=O)CNC(=O)[C@H](CCC(=O)O)NC(=O)[C@H](C)NC(=O)[C@H](Cc2c[nH]cn2)NC(=O)[C@@H](N)C(C)C)[C@@H](C)O)[C@@H](C)O)C(=O)NC(C)(CCCc2ccccc2)C(N)=O)cc1 (some centres unmarked) [compound 170] (H-VHAEGT[ξαMePhe(2-F)]T[ξαMeS]D[ξαMeBip(2'-Et,4'-OMe)][ξαMe(hhPhe)]-NH2)
> 1440 min

Consider the compound shown here: CCc1cc(OC)ccc1-c1ccc(CC(C)(NC(=O)C(C)(CC(=O)O)NC(=O)[C@H](CO)NC(=O)[C@@H](NC(=O)[C@H](Cc2ccccc2)NC(=O)[C@@H](NC(=O)CNC(=O)[C@H](CCC(=O)O)NC(=O)C2(C)CCCN2C(=O)[C@H](Cc2c[nH]cn2)NC(=O)[C@@H](N)C(C)C)[C@@H](C)O)[C@@H](C)O)C(=O)NC(C)(CCCc2ccccc2)C(N)=O)cc1 (some centres unmarked) [compound 188] (H-VH[ξαMeP]EGTFTS[ξαMeD][ξαMeBip(2'-Et,4'-OMe)][ξαMe(hhPhe)]-NH2) What is its recorded half-life?
> 1440 min

Then there is this compound:
Given the compound CCc1cc(OC)ccc1-c1ccc(CC(C)(NC(=O)[C@H](CC(=O)O)NC(=O)[C@H](CO)NC(=O)[C@@H](NC(=O)[C@H](Cc2ccccc2)NC(=O)[C@@H](NC(=O)CNC(=O)[C@H](CCC(N)=O)NC(=O)[C@H](CO)NC(=O)[C@H](Cc2c[nH]cn2)NC(=O)[C@@H](NC(=O)[C@@H](N)C(C)C)C(C)C)[C@@H](C)O)[C@@H](C)O)C(=O)NC(CCCc2ccccc2)C(N)=O)cc1 (some centres unmarked) [compound 205] (H-VVHSQGTFTSD[ξαMeBip(2'-Et,4'-OMe)][ξhhPhe]-NH2) , what is its reported half-life?
> 1440 min

----------
experiment: Stability in liver microsomes; type: in vitro ADME, human; details: 2 μM, 37° C., 24 h
Where a SMILES comes first, the peptide text is derived from it. [ ]: non-standard residue; d: D form. ξ: configuration not given here. ξαMeBip(2'-Et,4'-OMe) = CCc1cc(OC)ccc1-c1ccc(CC(C)(N)C(=O)O)cc1; ξαMePhe(2,6-F2) = CC(N)(Cc1c(F)cccc1F)C(=O)O; ξαMe(hhPhe) = CC(N)(CCCc1ccccc1)C(=O)O; ξhhPhe = NC(CCCc1ccccc1)C(=O)O; ξαMeD = CC(N)(CC(=O)O)C(=O)O; ξαMeP = CC1(C(=O)O)CCCN1; Aib = CC(C)(N)C(=O)O
Result Type: % degradation in 24 h when incubated with liver microsomes (%)
Give bare numbers, in %.

Take a look at these entries with their results.
What does the data say about its % degradation in 24 h when incubated with liver microsomes? Entry: CCc1cc(OC)ccc1-c1ccc(CC(C)(NC(=O)[C@H](CC(=O)O)NC(=O)[C@H](CO)NC(=O)[C@@H](NC(=O)[C@H](Cc2ccccc2)NC(=O)[C@@H](NC(=O)CNC(=O)[C@H](CCC(N)=O)NC(=O)[C@H](CO)NC(=O)[C@H](Cc2c[nH]cn2)NC(=O)[C@@H](NC(=O)[C@@H](N)C(C)C)C(C)C)[C@@H](C)O)[C@@H](C)O)C(=O)NC(CCCc2ccccc2)C(N)=O)cc1 (some centres unmarked) [compound 205] (H-VVHSQGTFTSD[ξαMeBip(2'-Et,4'-OMe)][ξhhPhe]-NH2)
84

What does the data say about its % degradation in 24 h when incubated with liver microsomes? Entry: CCc1cc(OC)ccc1-c1ccc(CC(C)(NC(=O)C(C)(CC(=O)O)NC(=O)[C@H](CO)NC(=O)[C@@H](NC(=O)C(C)(Cc2c(F)cccc2F)NC(=O)[C@@H](NC(=O)CNC(=O)[C@H](CCC(=O)O)NC(=O)[C@H](CO)NC(=O)[C@H](Cc2c[nH]cn2)NC(=O)[C@@H](N)C(C)C)[C@@H](C)O)[C@@H](C)O)C(=O)NC(C)(CCCc2ccccc2)C(N)=O)cc1 (some centres unmarked) [compound 201] (H-VHSEGT[ξαMePhe(2,6-F2)]TS[ξαMeD][ξαMeBip(2'-Et,4'-OMe)][ξαMe(hhPhe)]-NH2)
81

// query % degradation in 24 h when incubated with liver microsomes value for entry CCc1cc(OC)ccc1-c1ccc(CC(C)(NC(=O)C(C)(CC(=O)O)NC(=O)[C@H](CO)NC(=O)[C@@H](NC(=O)[C@H](Cc2ccccc2)NC(=O)[C@@H](NC(=O)CNC(=O)[C@H](CCC(=O)O)NC(=O)C2(C)CCCN2C(=O)[C@H](Cc2c[nH]cn2)NC(=O)[C@@H](N)C(C)C)[C@@H](C)O)[C@@H](C)O)C(=O)NC(C)(CCCc2ccccc2)C(N)=O)cc1 (some centres unmarked) [compound 188] (H-VH[ξαMeP]EGTFTS[ξαMeD][ξαMeBip(2'-Et,4'-OMe)][ξαMe(hhPhe)]-NH2)
80

Reported % degradation in 24 h when incubated with liver microsomes, molecule CCc1cc(OC)ccc1-c1ccc(CC(C)(NC(=O)[C@H](CC(=O)O)NC(=O)[C@H](CO)NC(=O)[C@@H](NC(=O)C(C)(Cc2c(F)cccc2F)NC(=O)[C@@H](NC(=O)CNC(=O)[C@H](CCC(=O)O)NC(=O)C(C)(C)NC(=O)[C@H](Cc2c[nH]cn2)NC(=O)[C@@H](N)C(C)C)[C@@H](C)O)[C@@H](C)O)C(=O)NC(CCCc2ccccc2)C(N)=O)cc1 (some centres unmarked) [compound 31] (H-VH[Aib]EGT[ξαMePhe(2,6-F2)]TSD[ξαMeBip(2'-Et,4'-OMe)][ξhhPhe]-NH2) : ____
77

Others:
Value lookup for % degradation in 24 h when incubated with liver microsomes; key = CCc1cc(OC)ccc1-c1ccc(CC(C)(NC(=O)C(C)(CC(=O)O)NC(=O)[C@H](CO)NC(=O)[C@@H](NC(=O)[C@H](Cc2ccccc2)NC(=O)[C@@H](NC(=O)CNC(=O)[C@H](CCC(N)=O)NC(=O)[C@H](C)NC(=O)[C@H](Cc2c[nH]cn2)NC(=O)[C@@H](N)C(C)C)[C@@H](C)O)[C@@H](C)O)C(=O)NC(CCCc2ccccc2)C(N)=O)cc1 (some centres unmarked) [compound 58] (H-VHAQGTFTS[ξαMeD][ξαMeBip(2'-Et,4'-OMe)][ξhhPhe]-NH2)
77

Origin of values: patent US20120264685A1
